target: 5-lipoxygenase (Rattus norvegicus, UniProt P12527); construct: endogenous in cells; assay: Formation of leucotrien B4 by neutrophils (measure of 5-lipoxygenase activity), A23187 stimulated, RIA; conditions: rat peritoneal neutrophils (lambda-carageenan), 5 min preincubation at 37° C., A23187 2 μmol/l, read-out: IC50 LTB4
Sequence (P12527 whole entry): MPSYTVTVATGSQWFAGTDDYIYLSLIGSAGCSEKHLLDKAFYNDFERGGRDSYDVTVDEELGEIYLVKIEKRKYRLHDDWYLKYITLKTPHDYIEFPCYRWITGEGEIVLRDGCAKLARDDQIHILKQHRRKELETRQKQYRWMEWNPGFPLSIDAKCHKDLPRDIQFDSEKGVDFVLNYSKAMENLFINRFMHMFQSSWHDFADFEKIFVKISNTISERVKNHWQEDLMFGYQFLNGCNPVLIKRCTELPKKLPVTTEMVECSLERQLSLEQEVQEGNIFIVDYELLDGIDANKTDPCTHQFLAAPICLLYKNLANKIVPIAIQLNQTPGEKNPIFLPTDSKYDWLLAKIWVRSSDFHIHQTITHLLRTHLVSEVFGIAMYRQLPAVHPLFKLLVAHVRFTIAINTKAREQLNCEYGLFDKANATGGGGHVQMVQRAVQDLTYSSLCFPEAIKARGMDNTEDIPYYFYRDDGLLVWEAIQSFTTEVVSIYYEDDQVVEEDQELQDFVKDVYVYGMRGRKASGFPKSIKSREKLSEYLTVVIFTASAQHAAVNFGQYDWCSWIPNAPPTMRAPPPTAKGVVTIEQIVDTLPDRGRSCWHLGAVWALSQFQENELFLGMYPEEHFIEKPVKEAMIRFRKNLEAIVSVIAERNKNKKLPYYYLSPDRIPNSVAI
pIC50: −log10 of the molar value.
# pIC50 values compiled below

Previously resolved entries follow.
CN1C(C(=O)Nc2ccccn2)=C(O)c2sc(Cl)cc2S1(=O)=O [Compound A, reference compound]; < 5.00
CN1C(C(=O)Nc2nccs2)=C(O)c2sc(Cl)cc2S1(=O)=O; < 5.00
CN1C(C(=O)Nc2ccccn2)=C(O)c2sc(-c3ccco3)cc2S1(=O)=O; < 5.00
CN1C(C(=O)Nc2ccccn2)=C(O)c2sc(-c3cccs3)cc2S1(=O)=O; < 5.00
CN1C(C(=O)Nc2nc(-c3ccc(Oc4ccc(F)cc4)o3)cs2)=C(O)c2sc(Cl)cc2S1(=O)=O; 6.33
CN1C(C(=O)Nc2nc(-c3ccc(Oc4ccc(F)cc4)o3)cs2)=C(O)c2sc(-c3ccco3)cc2S1(=O)=O; 6.18
CN1C(C(=O)Nc2nc(-c3ccccc3)cs2)=C(O)c2sc(Cl)cc2S1(=O)=O; < 5.00

Now for a further compound.
Note to self: pIC50 recorded for CN1C(C(=O)Nc2ccccn2)=C(O)c2sc(-c3ccccc3)cc2S1(=O)=O was < 5.00
